# Measured target: rat PTP1 (Rattus norvegicus)
# Construct: a C-terminal truncation of rat PTP1 (amino acid residues 1-322); GST (N, cleaved yes); made in house; host or cells: E. coli strain TG-1 (pGEX-2T)
# Sequence (P20417 1-322): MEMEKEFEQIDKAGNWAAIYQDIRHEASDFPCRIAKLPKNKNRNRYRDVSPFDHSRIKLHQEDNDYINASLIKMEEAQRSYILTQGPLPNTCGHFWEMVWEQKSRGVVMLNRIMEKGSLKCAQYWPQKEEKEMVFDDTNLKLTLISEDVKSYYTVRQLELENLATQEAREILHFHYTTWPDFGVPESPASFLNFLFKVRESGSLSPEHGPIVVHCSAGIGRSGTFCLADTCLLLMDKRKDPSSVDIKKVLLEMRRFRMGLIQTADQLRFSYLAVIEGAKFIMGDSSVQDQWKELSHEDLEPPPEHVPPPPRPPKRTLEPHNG
# Protocol text: PTP1 assay, pNPP hydrolysis (rate of change in A405)
# Type: biochemical
# Condition set: Conc 10 uM; pNPP hydrolysis; Table 2; read-out: PTP1 Inhib PTP1N. % Inhib
Please respond with reported inhibition at 10 µM for every item in the list.
Reply with just the number (in %).

inhibition at 10 µM reading for CCCCCNC(=O)C(Cc1ccc(OC(COO)COO)cc1)NC(=O)N(Cc1ccc(CC(=O)O)cc1)Cc1cccc(C(F)(F)F)c1 (stereo not drawn) : 51

inhibition at 10 µM reading for CCCCCNC(=O)C(Cc1ccc(OC(COO)COO)cc1)NC(=O)C(Cc1ccc(OC(C)(C)C)cc1)NC(=O)CCC(=O)O (stereo not drawn) : 83

inhibition at 10 µM reading for CCCCCNC(=O)C(Cc1ccc(OC(COO)COO)cc1)NC(=O)C(Cc1ccc(C(=O)c2ccccc2)cc1)NC(=O)CCC(=O)O (stereo not drawn) [drawing 139] : 13

inhibition at 10 µM reading for CCCCCNC(=O)C(Cc1ccc(OC(COO)COO)cc1)NC(=O)C(C)NC(=O)OC(C)(C)C (stereo not drawn) : 22

inhibition at 10 µM reading for CCCCCNC(=O)C(Cc1ccc(OC(COO)COO)cc1)NC(=O)C(Cc1ccc(OC(C)(C)C)cc1)NC(=O)OC(C)(C)C (stereo not drawn) : 36

inhibition at 10 µM reading for CCCCCNC(=O)C(Cc1ccc(OC(COO)COO)cc1)NC(=O)C(Cc1ccc(C(=O)c2ccccc2)cc1)NC(=O)CCc1ccc(O)cc1 (stereo not drawn) : 47

inhibition at 10 µM reading for CCCCCNC(=O)C(Cc1ccc(OC(COO)COO)cc1)NC(=O)C(Cc1ccccc1)NC(=O)OC(C)(C)C (stereo not drawn) : 42

inhibition at 10 µM reading for CCCCCNC(=O)C(Cc1ccc(OC(COO)COO)cc1)NC(=O)C(Cc1ccc(OC)cc1)NC(=O)OC(C)(C)C (stereo not drawn) : 36

inhibition at 10 µM reading for CCCCCNC(=O)C(Cc1ccc(OC(COO)COO)cc1)NC(=O)C(Cc1ccc(OC)cc1)NC(=O)CCC(=O)O (stereo not drawn) : 83

inhibition at 10 µM reading for CCCCCNC(=O)C(Cc1ccc(OC(COO)COO)cc1)NC(=O)C(Cc1ccc(OCc2ccccc2)cc1)NC(=O)CCC(=O)O (stereo not drawn) : 80

inhibition at 10 µM reading for CCCCCNC(=O)C(Cc1ccc(OC(COO)COO)cc1)NC(=O)NCC(=O)NCC(=O)O (stereo not drawn) : 56

inhibition at 10 µM reading for CCCCCNC(=O)C(Cc1ccc(OC(C(=O)O)C(=O)O)c(F)c1)NC(=O)CCC(=O)O (stereo not drawn) : 29

###

Please respond with reported inhibition at 1 µM for every item in the list.
# Measured target: rat PTP1 (Rattus norvegicus)
# Construct: a C-terminal truncation of rat PTP1 (amino acid residues 1-322); GST (N, cleaved yes); made in house; host or cells: E. coli strain TG-1 (pGEX-2T)
# Protocol text: PTP1 assay, pNPP hydrolysis (rate of change in A405)
# Type: biochemical
# Condition set: Conc 1 uM; pNPP hydrolysis; Table 2; read-out: PTP1 Inhib PTP1N. % Inhib

inhibition at 1 µM reading for CCCCCNC(=O)C(Cc1ccc(OC(COO)COO)cc1)NC(=O)C(Cc1ccc(OC(C)(C)C)cc1)NC(=O)CCC(=O)O (stereo not shown) : 37%

inhibition at 1 µM reading for CCCCCNC(=O)C(Cc1ccc(OC(COO)COO)cc1)NC(=O)C(Cc1ccc(C(=O)c2ccccc2)cc1)NC(=O)CCc1ccc(O)cc1 (stereo not shown) : 9%

inhibition at 1 µM reading for CCCCCNC(=O)C(Cc1ccc(OC(COO)COO)cc1)NC(=O)[C@H](Cc1ccc(C(=O)c2ccccc2)cc1)NC(C)=O (stereo partly shown) : 9%

inhibition at 1 µM reading for CCCCCNC(=O)C(Cc1ccc(OC(COO)COO)cc1)NC(=O)C(Cc1ccccc1)NC(=O)CCC(=O)O (stereo not shown) : 37%
